Would you mind telling me the reported EC50 of each entry?
# target-or-test-system: hSTING-R232 (Homo sapiens, UniProt Q86WV6, H232R)
# Sequence (Q86WV6 whole entry H232R): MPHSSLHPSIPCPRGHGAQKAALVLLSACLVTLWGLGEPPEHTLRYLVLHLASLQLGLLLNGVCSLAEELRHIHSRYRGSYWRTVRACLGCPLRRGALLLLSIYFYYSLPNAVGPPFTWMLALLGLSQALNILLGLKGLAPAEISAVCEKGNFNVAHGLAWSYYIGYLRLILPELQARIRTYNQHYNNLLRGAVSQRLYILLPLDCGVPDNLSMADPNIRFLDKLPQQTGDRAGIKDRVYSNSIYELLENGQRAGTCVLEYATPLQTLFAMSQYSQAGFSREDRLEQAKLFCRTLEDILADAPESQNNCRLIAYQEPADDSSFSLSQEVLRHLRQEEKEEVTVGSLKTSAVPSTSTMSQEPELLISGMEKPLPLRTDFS
# experimental-details: ISG reporter induction in 293-Dual hSTING-R232 reporter cells (QUANTI-Blue)
# reported-conditions: 293-Dual hSTING-R232 cells, overnight incubation

Which EC50 is reported for this compound? COc1cc2sc(/C=C/CC(=O)O)cc2c(F)c1OCCCOc1c(OC)cc2sc(C(=O)CC(C)(C)C(=O)O)cc2c1F ≤ 0.05 µM

Fill in: EC50 of COc1cc2sc(C(=O)CC(C)(C)C(=O)O)cc2c(C)c1OCCCOc1c(OC)cc2sc(C(=O)CP(=O)(O)O)cc2c1C is ___ > 0.15 µM

Quick check: EC50 of COc1cc2cc(C(=O)CCC(=O)O)ccc2cc1OCCCOc1c(OC)cc2sc(C(=O)CC(C)(C)C(=O)O)cc2c1F ? > 0.15 µM

Return reported EC50; argument: COc1cc2sc(C(=O)CC(C)(C)C(=O)O)cc2c(F)c1OCCCOc1c(OC)cc2sc(C(=O)CP(=O)(OC)OC)cc2c1F > 0.15 µM

Using the record for COC(=O)C(C)(C)CC(=O)c1cc2c(F)c(OCCCOc3c(OC)cc4sc(C(=O)CP(=O)(O)O)cc4c3F)c(OC)cc2s1 , report its EC50. 0.05 to 0.15 µM

Look at this compound and give its reported EC50. COc1cc2sc(C(=O)CC(C)(C)C(=O)O)cc2c(F)c1OCCCOc1ccc2cc(C(=O)CCC(=O)O)ccc2c1 0.05 to 0.15 µM

// lookup EC50 for COc1cc2cc(C(=O)CCC(=O)O)ccc2c(F)c1OCCCOc1c(OC)cc2sc(C(=O)CC(C)(C)C(=O)O)cc2c1F > 0.15 µM

Suppose we examine the compound COc1cc2sc(C(=O)CCC(=O)O)cc2c(F)c1OCCCOc1c(OC)cc2sc(C(=O)CP(=O)(O)O)cc2c1F ; what EC50 value has been reported? ≤ 0.05 µM

* * *

# target-or-test-system: hSTING-R232 (Homo sapiens, UniProt Q86WV6, H232R)
# experimental-details: ISG reporter induction in 293-Dual hSTING-R232 reporter cells (QUANTI-Blue)
# reported-conditions: 293-Dual hSTING-R232 cells, overnight incubation
pEC50: −log10 of the molar value.
measure-name: pEC50

Give pEC50 (hSTING-R232 (Homo sapiens, UniProt Q86WV6, H232R)) of the following molecule: COc1cc2sc(C(=O)CC(C)(C)C(=O)O)cc2c(F)c1OCCCOc1c(OC)cc2sc(C(=O)CP(=O)(O)O)cc2c1F ≥ 7.30

Param readout = pEC50; param system = hSTING-R232 (Homo sapiens, UniProt Q86WV6, H232R); param query = COc1cc2sc(C(=O)CC(C)(C)C(=O)O)cc2c(F)c1OCCCOc1c(OC)cc2sc(C3CC3CC(=O)O)cc2c1F (stereo not shown) ; response: value < 6.82

Form: Entry = COc1cc2sc(C(=O)CC(C)(C)C(=O)O)cc2c(F)c1OCCCOc1ccc2cc(C(=O)CCC(=O)O)ccc2c1F | System = hSTING-R232 (Homo sapiens, UniProt Q86WV6, H232R) | pEC50 = ____ < 6.82

Request: pEC50, test system hSTING-R232 (Homo sapiens, UniProt Q86WV6, H232R), entry COC(=O)C(C)(C)CC(=O)c1cc2c(F)c(OCCCOc3c(OC)cc4sc(C(=O)CC(C)(C)P(=O)(O)O)cc4c3F)c(OC)cc2s1 < 6.82
